Where these numbers come from: paper PMC7144022

system: BVDV NADL virus; test: CPE-based antiviral assay, BVDV NADL in MDBK cells (MTS/PMS); settings: selectivity index, CC50 vs EC50
value kind: S.I.
Give bare numbers.

Please review the following examples before continuing.
> print(dat)
                                test.smiles  reading
1  O=C(Nc1nc2c(Cl)cccc2s1)c1cc(-c2ccccc2)nc2ccccc12      125
2  O=C(Nc1ccn(-c2ccccc2)n1)c1cc(-c2ccccn2)nc2ccccc12      500
3  Cc1csc(-c2cc(C(=O)Nc3nc4c(C)cccc4s3)c3ccccc3n2)c1       53
4  Cc1cccc2sc(NC(=O)c3cc(-c4ccccc4)nc4ccccc34)nc12      333
5  CS(=O)(=O)c1ccc2nc(NC(=O)c3cc(-c4ccccc4)nc4ccccc34)sc2c1        1

I would be grateful if you could provide S.I. for each of the following entries.
1. Cc1cccc2sc(NC(=O)c3cc(-c4ccccc4Cl)nc4ccccc34)nc12
2. COc1cccc2sc(NC(=O)c3cc(-c4ccccc4)nc4ccccc34)nc12
3. COc1ccc(-c2cc(C(=O)Nc3nc4c(C)cccc4s3)c3ccccc3n2)cc1
4. COc1ccc2nc(NC(=O)c3cc(-c4ccco4)nc4c(F)cccc34)sc2c1

1: 250; 2: 250; 3: 59; 4: 1429

###

Consider the following molecules; for each one, report its EC50.
test system: BVDV NADL virus; assay: CPE-based antiviral assay, BVDV NADL in MDBK cells (MTS/PMS); conditions: Bovine viral diarrhea virus isolates and strains, MDBK, 72 h
Answers are plain numbers, in µM.

Please review the following examples before continuing.
> print(dat)
                                test.smiles  value.kind  units.text  reading
1  CC(C)(C)c1cc(NC(=O)c2cc(-c3ccccc3)nc3ccccc23)no1        EC50          µM      7.2
2  Cc1cccc2sc(NC(=O)c3cc(-c4ccco4)nc4ccc(Cl)cc34)nc12        EC50          µM     11.5
3  Cc1cccc2sc(NC(=O)c3cc(-c4ccsc4)nc4ccccc34)nc12        EC50          µM      0.1

I would be grateful if you could provide EC50 for each of the following entries.
1. Cc1cc2nc(NC(=O)c3cc(-c4ccco4)nc4ccccc34)sc2cc1C
2. Cc1cccc2sc(NC(=O)c3cc(-c4ccco4)nc4c(F)cccc34)nc12
3. COc1ccc2nc(NC(=O)c3cc(-c4ccco4)nc4c(F)cccc34)sc2c1
4. Cc1cc(C)c2nc(-c3ccco3)cc(C(=O)Nc3nc4c(C)cccc4s3)c2c1
5. O=C(Nc1ccn(-c2ccccc2)n1)c1cc(-c2cccc(F)c2)nc2ccccc12

1. 0.6
2. 0.9
3. 0.07
4. 5.3
5. 0.1

###

test system: BVDV NADL virus; experiment: CPE-based antiviral assay, BVDV NADL in MDBK cells (MTS/PMS); settings: Bovine viral diarrhea virus isolates and strains, MDBK, 72 h
value kind: EC50 (µM)
One number for each entry, in µM.

Please review the following examples before continuing.
> print(dat)
                                test.smiles  reading
1  O=C(Nc1cc(-c2ccc(Br)cc2)on1)c1cc(-c2ccccc2)nc2ccccc12        4
2  Cc1cccc2sc(NC(=O)c3cc(-c4ccc(Cl)s4)nc4ccccc34)nc12       14
3  O=C(Nc1ccn(-c2ccccc2)n1)c1cc(-c2cccs2)nc2ccc(I)cc12      4.1
4  Cc1cc(NC(=O)c2cc(-c3ccccc3)nc3ccccc23)on1     34.6
5  O=C(Nc1nc2ccc(F)cc2s1)c1cc(-c2ccccc2)nc2ccccc12      0.3
6  COc1ccc2nc(NC(=O)c3cc(-c4ccco4)nc4ccccc34)sc2c1     0.09
7  COc1ccc2nc(NC(=O)c3cc(-c4ccco4)nc4ccc(OC)cc34)sc2c1       16
8  Cc1cccc2sc(NC(=O)c3cc(-c4cccs4)nc4c(Cl)cccc34)nc12      0.2

I would be grateful if you could provide EC50 for each of the following entries.
1. Cc1cc(NC(=O)c2cc(-c3ccco3)nc3ccccc23)on1
2. O=C(Nc1ccn(-c2ccccc2)n1)c1cc(-c2cccnc2)nc2ccccc12
3. Cc1ccc(-n2ccc(NC(=O)c3cc(-c4ccccc4)nc4ccccc34)n2)cc1
4. O=C(Nc1ccn(-c2cccc(Cl)c2)n1)c1cc(-c2ccccc2)nc2ccccc12
5. O=C(Nc1ccn(-c2ccc(F)cc2)n1)c1cc(-c2cccnc2)nc2ccccc12
6. O=C(Nc1ccn(-c2ccccc2)n1)c1cc(-c2cccc3ccccc23)nc2ccccc12
7. O=C(Nc1ccn(-c2ccccc2)n1)c1cc(-c2ccncc2)nc2ccccc12

17.5
53.6
0.6
0.02
1.4
0.1
100

###

molecular target: BVDV (NADL) RNA-dependent RNA polymerase (RdRp) (Bovine viral diarrhea virus); construct: BVDV (NADL) RNA-dependent RNA polymerase (RdRp) was expressed and purified; made in house; test: RNA-dependent RNA polymerase assay, poly(C) template; type: biochemical; conditions: purified RdRp, read-out: 50% inhibitory concentration for the BVDV polymerase activity
Sequence (P19711 3270-3988): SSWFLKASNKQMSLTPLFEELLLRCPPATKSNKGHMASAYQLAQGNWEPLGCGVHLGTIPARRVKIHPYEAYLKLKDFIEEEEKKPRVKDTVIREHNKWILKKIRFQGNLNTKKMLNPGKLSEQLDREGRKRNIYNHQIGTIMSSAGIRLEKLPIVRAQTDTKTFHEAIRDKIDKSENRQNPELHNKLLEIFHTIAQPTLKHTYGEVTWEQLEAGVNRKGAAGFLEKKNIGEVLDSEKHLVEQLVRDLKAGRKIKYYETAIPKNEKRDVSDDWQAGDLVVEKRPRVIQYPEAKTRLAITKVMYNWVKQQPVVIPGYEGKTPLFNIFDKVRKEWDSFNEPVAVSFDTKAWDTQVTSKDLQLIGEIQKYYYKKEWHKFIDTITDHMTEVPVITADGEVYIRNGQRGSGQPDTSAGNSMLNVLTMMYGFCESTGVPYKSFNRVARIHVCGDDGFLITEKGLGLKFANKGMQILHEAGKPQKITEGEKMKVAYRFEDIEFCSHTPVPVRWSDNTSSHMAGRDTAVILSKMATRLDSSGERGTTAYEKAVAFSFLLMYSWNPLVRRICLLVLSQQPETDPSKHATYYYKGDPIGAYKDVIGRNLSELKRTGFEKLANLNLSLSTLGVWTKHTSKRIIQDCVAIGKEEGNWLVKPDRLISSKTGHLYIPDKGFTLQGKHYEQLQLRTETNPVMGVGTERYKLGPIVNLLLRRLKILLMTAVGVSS
value kind: IC50

Looking for the measured IC50 of Nc1nc2c(ncn2[C@@H]2O[C@H](COP(=O)(O)OP(=O)(O)OP(=O)(O)O)C[C@H]2O)c(=O)[nH]1 [3′-dGTP, 3′-deoxyguanosine-5’-triphosphate, reference compound] , can you help?
< 1 µM

###

system: BVDV NADL virus; assay: CPE-based antiviral assay, BVDV NADL in MDBK cells (MTS/PMS); settings: sheet CSFCII#; potency relative to TO502-2403 (EC50 0.2 µM)
value kind: fold increase
Give bare numbers.

Please review the following examples before continuing.
> print(dat)
                                test.smiles      test.system  reading
1  Cc1cccc2sc(NC(=O)c3cc(-c4cccs4)nc4ccccc34)nc12  BVDV NADL virus     1.00
2  COc1ccc2nc(NC(=O)c3cc(-c4ccco4)nc4ccc(OC)cc34)sc2c1  BVDV NADL virus   0.0125
3  Cc1cccc2sc(NC(=O)c3cc(-c4ccco4)nc4ccc(C(F)(F)OF)cc34)nc12  BVDV NADL virus     0.08

I would be grateful if you could provide fold increase for each of the following entries.
1. O=C(Nc1ccn(-c2ccccc2)n1)c1cc(-c2ccc(Cl)s2)nc2ccccc12
2. CS(=O)(=O)c1ccc2nc(NC(=O)c3cc(-c4ccccc4)nc4ccccc34)sc2c1
3. COc1ccc(-c2cc(C(=O)Nc3nc4c(C)cccc4s3)c3ccccc3n2)cc1
4. CCOc1ccc2nc(NC(=O)c3cc(-c4ccccc4)nc4ccccc34)sc2c1
5. O=C(Nc1ccn(-c2ccccc2)n1)c1cc(-c2cccs2)nc2c(F)cccc12
6. COc1ccc(-c2cc(C(=O)Nc3ccn(-c4ccccc4)n3)c3ccccc3n2)cc1
7. Cc1cccc2sc(NC(=O)c3cc(-c4cccc(F)c4)nc4ccccc34)nc12

1: 0.00258; 2: 0.002; 3: 0.12; 4: 0.06; 5: 4.00; 6: 0.67; 7: 0.008

I would be grateful if you could provide fold increase for each of the following entries.
1. O=C(Nc1ccn(-c2ccccc2)n1)c1cc(-c2cnccn2)nc2ccccc12
2. O=C(Nc1ccn(-c2ccc(F)cc2)n1)c1cc(-c2ccccc2)nc2ccccc12
3. O=C(Nc1nc2ccc(C(F)(F)F)cc2s1)c1cc(-c2ccccc2)nc2ccccc12

1.00
0.40
0.002

I would be grateful if you could provide fold increase for each of the following entries.
1. Cc1cccc2sc(NC(=O)c3cc(-c4cnccn4)nc4ccccc34)nc12
2. Cc1ccc(-c2csc(NC(=O)c3cc(-c4ccccc4)nc4ccccc34)n2)cc1
3. O=C(Nc1ccn(-c2cc(F)cc(F)c2)n1)c1cc(-c2ccccc2)nc2ccccc12
4. Cc1cccc2sc(NC(=O)c3cc(-c4ccco4)nc4ccc(CO)cc34)nc12

0.67
0.18
10.00
0.002

###

system: BVDV NADL virus; experiment: CPE-based antiviral assay, BVDV NADL in MDBK cells (MTS/PMS); details: sheet CSFCII#; potency relative to TO502-2403 (EC50 0.2 µM)
value kind: fold increase

Please review the following examples before continuing.
> print(dat)
                                 test.smiles     value.kind  reading
 1  Cc1ccccc1-n1ccc(NC(=O)c2cc(-c3ccccc3)nc3ccccc23)n1  fold increase     0.09
 2  COc1ccc2nc(NC(=O)c3cc(-c4ccco4)nc4ccc(Cl)cc34)sc2c1  fold increase  0.00816
 3  O=C(Nc1ccn(-c2ccccc2)n1)c1cc(-c2cccs2)nc2ccc(F)cc12  fold increase     3.33
 4  Cc1csc(-c2cc(C(=O)Nc3ccn(-c4ccccc4)n3)c3ccccc3n2)c1  fold increase     0.17
 5  COc1ccc(-c2cc(C(=O)Nc3nc4c(C)cccc4s3)c3ccccc3n2)cc1F  fold increase     0.08
 6  O=C(Nc1ccn(-c2cccc(Cl)c2)n1)c1cc(-c2ccccc2)nc2ccccc12  fold increase    10.00
 7  O=C(Nc1ccn(-c2ccccc2)n1)c1cc(-c2cccs2)nc2ccccc12  fold increase     0.12
 8  O=C(Nc1nnc(-c2ccccc2)s1)c1cc(-c2cccs2)nc2ccc(F)cc12  fold increase     0.09
 9  Cc1cccc2sc(NC(=O)c3cc(-c4ccccc4Cl)nc4ccccc34)nc12  fold increase     0.50
10  COc1ccc2nc(NC(=O)c3cc(-c4ccco4)nc4c(F)cccc34)sc2c1  fold increase     2.86

I would be grateful if you could provide fold increase for each of the following entries.
1. Cc1cccc2sc(NC(=O)c3cc(-c4ccco4)nc4ccc(Cl)cc34)nc12
2. Cc1cccc2sc(NC(=O)c3cc(-c4ccco4)nc4c(F)cccc34)nc12
3. O=C(Nc1ccn(-c2ccccc2)n1)c1cc(-c2ccncc2)nc2ccccc12
4. O=C(Nc1ccn(-c2ccccc2)n1)c1cc(-c2cccnc2)nc2ccccc12

0.0174
0.22
0.002
0.00373

I would be grateful if you could provide fold increase for each of the following entries.
1. CCOc1ccc2nc(NC(=O)c3cc(-c4ccco4)nc4ccccc34)sc2c1
2. COc1ccc2nc(NC(=O)c3cc(-c4ccco4)nc4c(C)cc(C)cc34)sc2c1
3. O=C(Nc1ccn(-c2ccccc2)n1)c1cc(-c2cccs2)nc2ccc(I)cc12
4. Cc1ccc2nc(-c3ccco3)cc(C(=O)Nc3nc4c(C)cccc4s3)c2c1
5. Cc1cccc2sc(NC(=O)c3cc(-c4ccncc4)nc4ccccc34)nc12
6. O=C(Nc1ccn(-c2ccccc2)n1)c1cc(-c2ccc3ccccc3c2)nc2ccccc12
7. Cc1c(-c2ccco2)nc2ccccc2c1C(=O)Nc1nc2c(C)cccc2s1
8. O=C(Nc1ccn(-c2ccccc2)n1)c1cc(-c2ccccn2)nc2ccccc12

1. 0.40
2. 0.0345
3. 0.05
4. 0.023
5. 1.00
6. 6.67
7. 0.29
8. 1.00

I would be grateful if you could provide fold increase for each of the following entries.
1. Cc1cccc2sc(NC(=O)c3cc(-c4ccccc4F)nc4c(F)cccc34)nc12
2. Cc1cccc2sc(NC(=O)c3cc(-c4cc5ccccc5o4)nc4ccccc34)nc12

[0.40, 0.07]
